B1: ADD1 (parent)
chain: GEGTGSPPKWQIGEQEFEALMRML

# Variants of: B1
# measurement_notes: protein stability index of a GFP-peptide fusion (GPS, HEK-293T) (PSI 1-6); higher = more stable;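 also: lentivirally expressed fusions sorted by FACS into six bins by GFP to DsRed ratio, PSI derived from sequencing read proportions per bin multiplied by bin number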
# measurement_context: c terminus: a fixed tail appended
parameter_measured: protein stability index

>>> readout_value("E2H")
2.96
>>> readout_value("W10G")
3.97
>>> readout_value("F17A")
3.92
>>> readout_value("F17Y")
3.94
>>> readout_value("L24G")
4.1
>>> readout_value("G13R")
2.99
>>> readout_value("M21K")
3.49
>>> readout_value("G5N")
3.28
>>> readout_value("I12V")
3.22
>>> readout_value("L20E")
4.77
>>> readout_value("M21I")
2.99
>>> readout_value("G3E")
3.07
>>> readout_value("G13L")
2.84
>>> readout_value("L20I")
2.46
>>> readout_value("R22I")
2.49
>>> readout_value("G1E")
3.57
>>> readout_value("E16R")
2.51
>>> readout_value("I12A")
3.9
>>> readout_value("E2M")
2.91
>>> readout_value("G13C")
3.22
>>> readout_value("F17C")
3.33
>>> readout_value("P7T")
2.23
>>> readout_value("E2L")
3.15
>>> readout_value("G5A")
3.39
>>> readout_value("L20P")
4.45
>>> readout_value("G13D")
3.65
>>> readout_value("E18G")
2.69
>>> readout_value("E18R")
2.07
>>> readout_value("E14T")
2.79
>>> readout_value("M21Y")
3.09
>>> readout_value("M21D")
4.41
>>> readout_value("R22F")
2.79
>>> readout_value("L24W")
3.57
>>> readout_value("G3L")
3.45
>>> readout_value("S6R")
3.75
>>> readout_value("M23S")
4.68
>>> readout_value("W10D")
4.58
>>> readout_value("E16V")
1.6
>>> readout_value("Q11E")
3.24
>>> readout_value("S6G")
2.55
>>> readout_value("A19R")
3.59
>>> readout_value("Q11A")
2.86
>>> readout_value("L20V")
3.48
>>> readout_value("W10P")
3.81
>>> readout_value("M23V")
3.43
>>> readout_value("L20Q")
5.25
>>> readout_value("F17I")
3.15
>>> readout_value("E18I")
2.37
>>> readout_value("G1I")
2.92
>>> readout_value("E2S")
2.73
>>> readout_value("E2D")
2.79
>>> readout_value("G1T")
2.94
>>> readout_value("P8W")
2.29
>>> readout_value("K9P")
3.42
>>> readout_value("Q11L")
2.98
>>> readout_value("E14F")
2.1
>>> readout_value("W10S")
4.2
>>> readout_value("E2W")
2.8
>>> readout_value("A19N")
4.03
>>> readout_value("W10V")
3.67
>>> readout_value("K9L")
2.34
>>> readout_value("L24D")
4.89
>>> readout_value("Q11V")
2.86

Where these numbers come from: the supplement of paper PMC10567573
